Recorded pKi by entry
Target: Proprotein convertase subtilisin/kexin type 6 (Rattus norvegicus, UniProt Q63415)
Sequence (Q63415 whole entry): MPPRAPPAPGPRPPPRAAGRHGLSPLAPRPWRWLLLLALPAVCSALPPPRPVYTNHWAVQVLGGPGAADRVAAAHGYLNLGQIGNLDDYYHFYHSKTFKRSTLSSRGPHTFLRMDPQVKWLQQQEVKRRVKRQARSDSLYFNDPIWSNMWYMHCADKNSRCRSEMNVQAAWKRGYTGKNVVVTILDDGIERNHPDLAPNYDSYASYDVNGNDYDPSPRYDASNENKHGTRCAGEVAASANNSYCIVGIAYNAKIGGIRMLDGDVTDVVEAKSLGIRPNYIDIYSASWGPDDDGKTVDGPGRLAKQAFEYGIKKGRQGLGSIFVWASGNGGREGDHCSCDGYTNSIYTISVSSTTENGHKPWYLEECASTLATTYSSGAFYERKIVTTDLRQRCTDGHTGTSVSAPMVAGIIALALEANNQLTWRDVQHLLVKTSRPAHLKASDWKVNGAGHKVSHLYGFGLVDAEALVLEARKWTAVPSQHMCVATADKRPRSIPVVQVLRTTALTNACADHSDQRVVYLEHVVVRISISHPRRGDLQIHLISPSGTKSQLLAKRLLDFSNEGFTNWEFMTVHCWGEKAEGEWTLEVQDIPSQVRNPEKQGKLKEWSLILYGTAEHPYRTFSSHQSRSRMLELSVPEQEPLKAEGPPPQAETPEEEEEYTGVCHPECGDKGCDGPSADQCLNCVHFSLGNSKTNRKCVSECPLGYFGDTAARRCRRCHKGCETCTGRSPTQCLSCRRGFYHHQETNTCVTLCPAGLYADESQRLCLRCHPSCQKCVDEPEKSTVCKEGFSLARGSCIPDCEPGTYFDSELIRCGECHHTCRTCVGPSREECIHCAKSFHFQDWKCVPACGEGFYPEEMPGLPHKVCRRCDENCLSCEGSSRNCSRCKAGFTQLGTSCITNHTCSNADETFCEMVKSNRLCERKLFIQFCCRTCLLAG
pKi: −log10 of the molar value.

SUBSTANCE	pKi
H-TPQRARRRKKRW-OH	6.72
H-TPQRARRRKKRY-OH	5.99
H-TPRARRRKKRT-NH2	6.79
H-TPQRARRRKKRT-OH	6.53
H-TPRARRRKKRI-NH2	6.57
H-TPQRARRRKKRF-OH	6.22

* * *

Non-standard residues stand in square brackets, D forms with d. Residues, ends and D or L forms follow the SMILES beside them. Sar = CNCC(=O)O
Reported values: Ki for Furin (Homo sapiens, UniProt P09958), one per item.

MOLECULE	Ki
C[C@@H](O)[C@H](N)C(=O)N1CCC[C@H]1C(=O)N[C@@H](CCC(N)=O)C(=O)N[C@@H](CCCNC(=N)N)C(=O)N[C@@H](CCC(=O)O)C(=O)N[C@@H](CCCNC(=N)N)C(=O)N[C@@H](CCCNC(=N)N)C(=O)N[C@@H](CCCNC(=N)N)C(=O)N[C@@H](CCCCN)C(=O)N[C@@H](CCCCN)C(=O)N[C@@H](CCCNC(=N)N)C(=O)NCC(=O)O	> 100 nM
C[C@H](NC(=O)[C@@H](N)[C@@H](C)O)C(=O)N[C@@H](CCCNC(=N)N)C(=O)N[C@@H](CCC(=O)O)C(=O)N[C@@H](CCCNC(=N)N)C(=O)N[C@@H](CCCNC(=N)N)C(=O)N[C@@H](CCCNC(=N)N)C(=O)N[C@@H](CCCCN)C(=O)N[C@@H](CCCCN)C(=O)N[C@@H](CCCNC(=N)N)C(=O)N(C)CC(=O)O (H-TARERRRKKR[Sar]-OH)	> 100 nM
C[C@H](NC(=O)[C@H](C)NC(=O)[C@@H]1CCCN1C(=O)[C@@H](N)[C@@H](C)O)C(=O)N[C@@H](CCCN=C(N)N)C(=O)N[C@@H](CCCN=C(N)N)C(=O)N[C@@H](CCCN=C(N)N)C(=O)N[C@@H](CCCCN)C(=O)N[C@@H](CCCCN)C(=O)N[C@@H](CCCN=C(N)N)C(=O)N(C)CC(=O)O (H-TPAARRRKKR[Sar]-OH)	> 100 nM
